Recorded melting point, one value per entry.

>  <MOLECULE>
CCCCCCCCCCCCc1cc(NC(=O)Nc2c(C(C)C)cccc2C(C)C)no1

>  <melting point>
101 to 107 °C

$$$$
>  <MOLECULE>
CCCC[C@H](NC(=O)OC(C)(C)C)C(=O)CCCc1cccs1

>  <melting point>
50.5 to 52.5 °C

$$$$
>  <MOLECULE>
c1ccc2c(c1)CCSO2

>  <melting point>
119 to 120 °C

$$$$
>  <MOLECULE>
CCc1ccc2c(c1)C=Cc1cc(C)ccc1C2c1cn(-c2nccc(C(=O)NCC(=O)O)n2)c(=O)[nH]c1=O (stereo not given)

>  <melting point>
195 to 198 °C

$$$$
>  <MOLECULE>
CCCn1c(=O)c2c(NC)n[nH]c2n(Cc2ccccc2)c1=O

>  <melting point>
307 to 310 °C

$$$$
